Could you please mark true for values of logP below 2 and false for values at or above it?

INSERT INTO results (compound, assigned_class) VALUES
  ('OCC1OC(Oc2ccc3ccccc3c2)C(O)C(O)C1O (stereo not drawn)', 'true'),
  ('CCOC(=O)c1c(OCC)cc(Cc2cnc(N)nc2N)cc1OCC', 'false'),
  ('COc1cc(Cc2cnc(N)nc2N)cc(OC)c1CO', 'true'),
  ('CCCCNc1nnc(C(C)C)c(=O)n1N', 'true'),
  ('CC(C)(C)C1=Nc2ccc(Cl)cc2S(=O)(=O)N1', 'false'),
  ('CC(C)CNCC(=O)NC(=O)C=[N+]=[N-]', 'true'),
  ('CCCCCCCC1(CC)C(=O)NC(=O)NC1=O', 'false'),
  ('O=C(NN=Cc1ccccc1)c1ccccc1', 'false'),
  ('Nc1cccc2nccnc12', 'true'),
  ('CCCOn1c(=O)cc(C)[nH]c1=O', 'true'),
  ('COC(=O)C(C#N)=NNc1cc(C#N)ccc1C#N', 'false'),
  ('COc1ccc2c(c1)N=C(C)NS2(=O)=O', 'true'),
  ('CSc1nc2ccc(Cl)cc2[nH]1', 'false'),
  ('O=C(Cn1ccnc1[N+](=O)[O-])N(CO)CO', 'true'),
  ('COc1c(N(C)C)cc(Cc2cnc(N)nc2N)cc1N(C)C(C)=O', 'true'),
  ('S=C=Nc1ccc(N=Nc2ccccc2)cc1', 'false'),
  ('CS(=O)(=O)c1cccs1', 'true'),
  ('COc1cc(OC)c(N=C2NCCN2)cc1Cl', 'true'),
  ('Cc1cccc(C)c1N=C1NCCN1', 'true'),
  ('N#Cc1ccc(NS(=O)(=O)c2ccc(N)cc2)cc1', 'true'),
  ('COc1cc(Cc2cnc(N)nc2N)cc(OCc2ccccc2)c1OCc1ccccc1', 'false'),
  ('CNC(=O)NN', 'true'),
  ('CC(=O)Oc1ccc(C=CNC=O)cc1', 'true');

The measurements presented in this section are drawn from the OPERA property sets (Mansouri et al. 2018).
